Each recorded value in this set is attributed to patent US4696920A.

# Bound ^3 H at 1.0 μM / Bound ^3 H at 0.1 μM values compiled below
tested on: calcium channel binding site for [^3 H]-Nitrendipine (rat brain membranes); assay: [^3 H]-Nitrendipine binding to rat brain membranes; parameters: species or system rat (male Wistar); details: ratio of [^3 H]-Nitrendipine bound at 1.0 and 0.1 μM compound; Table 1a
Answer with a number only.

In the examples that follow, each entry is paired with its recorded Bound ^3 H at 1.0 μM / Bound ^3 H at 0.1 μM.
CCCCOP(=O)(CC(Cc1ccccc1)CP(=O)(OCCCC)OCCCC)OCCCC = 0.862
CCOP(=O)(CC(Cc1ccc(-c2ccccc2)cc1)CP(=O)(OCC)OCC)OCC = 0.721
CCCCOP(=O)(CC(Cc1cccc2ccccc12)CP(=O)(OCCCC)OCCCC)OCCCC = 0.548
CCOP(=O)(CC(CP(=O)(OCC)OCC)C(c1ccccc1)c1ccccc1)OCC = 1.220
CCCCCOP(=O)(CC(CCCc1ccccc1)CP(=O)(OCC)OCCCCC)OCC (stereo not shown) = 0.950

// next item, Bound ^3 H at 1.0 μM / Bound ^3 H at 0.1 μM requested
Task: What Bound ^3 H at 1.0 μM / Bound ^3 H at 0.1 μM value was documented for this molecule, O=P(O)(O)CC(Cc1ccccc1)CP(=O)(O)O ?
Output: 1.002
